Data origin: patent US20230048512A1

- Assay: Dissolution rate of tablets of the solid forms in FaSSIF v2 (small-scale dissolution assay, UV quantification, Noyes-Whitney fit)
- Type: physicochemical
- Test settings: FaSSIF v2 (pH 6.5), 25° C., 120 minutes, 3 mm tablet

| Molecule | Units text | dissolution rate |
| --- | --- | --- |
| COc1cc(/C=C/c2ccc(O)cc2)cc(OC)c1.Cn1c(=O)c2c(ncn2C)n(C)c1=O [Pterostilbene:caffeine cocrystal, reference compound] | nmol/min | 45.4 |
| COc1cc(/C=C/c2ccc(O)cc2)cc(OC)c1.O=C(O)c1ccccn1 | nmol/min | 427.8 |
| COc1cc(/C=C/c2ccc(O)cc2)cc(OC)c1.COc1cc(/C=C/c2ccc(O)cc2)cc(OC)c1.Cc1cnc(C)c(C)n1 | nmol/min | 52.0 |
| COc1cc(/C=C/c2ccc(O)cc2)cc(OC)c1.COc1cc(/C=C/c2ccc(O)cc2)cc(OC)c1.NCCN [Pterostilbene:ethylendiamine cocrystal] | nmol/min | 176.1 |
